# credit: paper PMC9482650

# tested_on: FRMPD3, Q5JV73
# Sequence (Q5JV73 12-100): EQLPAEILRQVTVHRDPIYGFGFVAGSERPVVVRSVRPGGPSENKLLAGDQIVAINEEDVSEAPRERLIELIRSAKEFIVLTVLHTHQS
# method_description: holdup assay
# Design: key: below the threshold = too weak to quantify, mostly under pKd 3.1 to 4
# study_conditions: plain residues with an end cap or a label only (N-terminal biotin on a linker: ado-ado)
readout_type: pKd

Example binders with recorded pKd:
QKAPTKEFYA [SDC2, P34741] ... 3.89
ARESQKVSHV [FAM110B, Q8TC76] ... below the threshold
TISFTQTSQF [SLC1A1, P43005] ... below the threshold
REEPDHSTEV [CCRL2, O00421] ... 3.6
GIKKITSTAL [RPS6KA3, P51812] ... below the threshold

Provide pKd value for the following binder: RDPPAEWTRV [PTPN18, Q99952] below the threshold

Note down pKd recorded for IDESKKEWLI [CNTNAP2, Q9UHC6] below the threshold

Supply recorded pKd for ARGPPRESEV [FAM110D, Q8TAY7] here. below the threshold

Dear colleague, please send me the reported pKd for EDLEDEWEVI [TECPR2, O15040] when you can. below the threshold

Please indicate pKd recorded for PYSESDDDWC [CACNA1A, O00555] 3.48

Recall and state the measured pKd for TRKRSGEAAV [PFKM, P08237] . below the threshold

Assign pKd to the following record: SRSVVESDEL [MYPN, Q86TC9] below the threshold

Hello, please tell me recorded pKd for this one: SLNANEVEWF [RNF130, Q86XS8] 4.07
